All figures here come from ChEMBL document CHEMBL1201862.

molecular target: Nonstructural protein 1 (Influenza A virus); type: functional, Influenza A virus (A/California/07/2009(H1N1))
Sequence (Q194T2 whole entry): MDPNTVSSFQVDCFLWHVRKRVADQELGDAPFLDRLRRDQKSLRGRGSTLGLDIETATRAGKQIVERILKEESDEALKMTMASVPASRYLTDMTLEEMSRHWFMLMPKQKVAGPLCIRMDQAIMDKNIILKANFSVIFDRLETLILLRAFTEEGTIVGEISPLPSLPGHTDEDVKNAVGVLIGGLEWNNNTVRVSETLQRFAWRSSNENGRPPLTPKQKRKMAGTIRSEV
Active and inactive are the calls of the source.
Attribute Measured: IC50

Please supply the value of reported IC50 for the item CC(C)/N=c1\scc(-c2ccco2)n1/N=C/c1ccc(O)c(O)c1 39.3 µM (active)

Determine from records and report IC50 for C=CCNC(=S)N/N=C(\C)c1ccccn1 2.5 µM (active)

In one line, give reported IC50 of the entry CN(C)c1ccc(N=Nc2ccc3ncccc3c2)cc1 . 20.4 µM (active)

Quote IC50 reported for CCOc1ccc(C(=O)N/N=C/c2cccc3cccnc23)cc1 please. 11.4 µM (active)

Determine its reported IC50: Oc1ccc(/C=N/Nc2ccc(Cl)nn2)c(O)c1O 2.08 µM (active)

Annotate the compound O=C(Cn1cnc([N+](=O)[O-])n1)N/N=C/c1ccc(O)cc1O with its measured IC50. 10.9 µM (active)

Provide one value: measured IC50 of CC1=[N+](C)c2c(ccc3cccnc23)C1(C)C > 100 µM (active)

Tell me measured IC50 for CN1CCN(Cc2cc(COCc3ccccc3)c3cccnc3c2O)CC1 please. 3.98 µM (active)
